- target entity: Integrin alpha-IIb/beta-3 (Homo sapiens, UniProt P05106+P08514)
- Sequence (P05106 27-788 limits assumed): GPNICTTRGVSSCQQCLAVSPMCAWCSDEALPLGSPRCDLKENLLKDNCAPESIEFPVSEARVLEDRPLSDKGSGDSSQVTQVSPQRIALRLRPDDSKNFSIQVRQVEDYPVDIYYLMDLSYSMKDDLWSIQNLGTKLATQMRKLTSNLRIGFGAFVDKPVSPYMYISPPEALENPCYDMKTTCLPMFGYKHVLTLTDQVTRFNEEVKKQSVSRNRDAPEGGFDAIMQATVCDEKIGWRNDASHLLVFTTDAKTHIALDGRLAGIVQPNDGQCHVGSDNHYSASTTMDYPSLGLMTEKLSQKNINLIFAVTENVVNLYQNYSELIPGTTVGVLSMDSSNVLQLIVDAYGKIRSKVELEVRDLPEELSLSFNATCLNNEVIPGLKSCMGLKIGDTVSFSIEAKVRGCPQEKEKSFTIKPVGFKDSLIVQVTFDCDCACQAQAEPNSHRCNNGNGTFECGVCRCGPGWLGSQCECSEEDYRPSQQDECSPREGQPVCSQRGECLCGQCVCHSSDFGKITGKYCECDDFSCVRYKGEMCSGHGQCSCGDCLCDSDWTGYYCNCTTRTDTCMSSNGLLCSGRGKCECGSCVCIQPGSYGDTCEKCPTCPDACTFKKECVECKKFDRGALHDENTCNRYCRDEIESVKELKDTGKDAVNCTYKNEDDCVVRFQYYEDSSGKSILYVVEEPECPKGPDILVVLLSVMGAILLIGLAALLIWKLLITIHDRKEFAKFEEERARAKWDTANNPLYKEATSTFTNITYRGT
- Sequence (P08514 32-887 limits assumed): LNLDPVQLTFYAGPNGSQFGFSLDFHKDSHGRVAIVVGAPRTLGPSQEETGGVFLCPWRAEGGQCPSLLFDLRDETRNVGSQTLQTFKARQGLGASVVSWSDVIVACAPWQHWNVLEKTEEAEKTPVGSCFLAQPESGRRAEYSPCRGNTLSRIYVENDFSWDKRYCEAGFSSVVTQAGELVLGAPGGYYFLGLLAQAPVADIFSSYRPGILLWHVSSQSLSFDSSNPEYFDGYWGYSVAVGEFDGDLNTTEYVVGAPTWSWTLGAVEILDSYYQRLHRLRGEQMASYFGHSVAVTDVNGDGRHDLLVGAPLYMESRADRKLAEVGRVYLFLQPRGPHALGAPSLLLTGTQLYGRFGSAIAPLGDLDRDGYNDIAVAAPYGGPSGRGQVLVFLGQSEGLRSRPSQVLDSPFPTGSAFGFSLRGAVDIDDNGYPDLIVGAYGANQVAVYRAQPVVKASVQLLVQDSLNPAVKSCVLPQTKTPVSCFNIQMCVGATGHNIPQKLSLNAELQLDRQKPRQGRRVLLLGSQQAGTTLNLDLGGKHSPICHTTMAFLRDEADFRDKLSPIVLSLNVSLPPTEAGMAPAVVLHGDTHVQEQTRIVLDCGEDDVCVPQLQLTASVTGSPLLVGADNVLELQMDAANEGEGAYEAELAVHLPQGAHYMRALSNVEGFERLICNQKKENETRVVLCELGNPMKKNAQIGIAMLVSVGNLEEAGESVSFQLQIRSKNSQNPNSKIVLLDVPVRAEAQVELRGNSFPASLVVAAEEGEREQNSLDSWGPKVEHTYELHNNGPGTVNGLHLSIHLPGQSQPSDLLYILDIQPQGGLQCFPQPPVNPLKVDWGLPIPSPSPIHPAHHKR
- Sequence (P08514 891-1039 limits assumed): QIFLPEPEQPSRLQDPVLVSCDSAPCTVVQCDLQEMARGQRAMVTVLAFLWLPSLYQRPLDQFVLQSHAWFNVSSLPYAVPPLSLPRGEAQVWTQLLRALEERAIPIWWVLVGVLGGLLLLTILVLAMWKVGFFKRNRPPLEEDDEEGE
- method description: Inhibition of fibrinogen binding to GPllb/IIIa receptor
- Type: protein-complex assay
observable: IC50 (µM)
Just the number in µM, nothing appended.

Ask: // query IC50 value for entry Cc1ccc(S(=O)(=O)N[C@@H](CCCNC(=O)OCc2ccccc2)C(=O)O)cc1 [ORNITHINE SULFONAMIDE]
Reply: 20

----------
- Species on record: Homo sapiens
- method description: Tested in vitro for the inhibition of ADP-induced aggregation of human blood platelets
- Assay type: functional
pIC50: −log10 of the molar value.
Output Fulfilled for pIC50 not less than 7; output Not fulfilled otherwise.

Ask: Is pIC50 for COc1ccc(CCC(=O)N[C@@H](CCCNC(=O)Cc2ccc(C(=N)N)cc2)CC(=O)O)cc1 at or above 7?
Reply: Fulfilled

Ask: Check if pIC50 >= 7 (inclusive). Item: Cc1ccc(S(=O)(=O)N[C@@H](CCCNC(=O)Cc2ccc(C(=N)N)cc2)CC(=O)O)cc1
Reply: Not fulfilled

Ask: Form field: pIC50 at least 7? Entry: CC(C)CC(=O)N[C@H](CCCCNC(=O)c1ccc(C(=N)N)cc1)CC(=O)O
Reply: Fulfilled

Ask: Can N=C(N)c1ccc(C(=O)NCCCC[C@H](CC(=O)O)NC(=O)Cc2cccc3ccccc23)cc1 be said to have pIC50 at or above 7?
Reply: Fulfilled

Ask: Hi team, for CC(C)CNC(=O)[C@@H](CCCNC(=O)Cc1ccc(C(=N)N)cc1)CC(=O)O , is the recorded pIC50 at or above 7?
Reply: Not fulfilled

Continuing:
Ask: Check if pIC50 >= 7 (inclusive). Item: COc1ccc(CCC(=O)N[C@H](CCCCNC(=O)c2ccc(C(=N)N)cc2)CC(=O)O)cc1
Reply: Fulfilled

Ask: For this compound, is measured pIC50 7 or higher? Cc1ccc(S(=O)(=O)N[C@@H](CCCNC(=O)Cc2ccc(C(=N)N)cc2)C(=O)O)cc1
Reply: Not fulfilled

Each recorded value in this set is attributed to ChEMBL document CHEMBL1129882.
